Assay: cells
Details: Homo sapiens, MV4-11, 48 h
Description: Growth inhibition of human MV411 cells after 48 hrs by XTT assay
Below: a set of entries, each annotated with reported GI50.
TEST READOUT: GI50

1. CC1=CC(=O)N(Nc2nc(-c3cccs3)nc3scc(-c4ccccc4)c23)C1=O    233 nM
2. COc1ccc(-c2sc3nc(-c4cccs4)nc(NN4C(=O)C=C(C)C4=O)c3c2C)cc1    135 nM
3. COc1ccc(-c2nc(NN3C(=O)C=C(C)C3=O)c3c(-c4ccccc4)csc3n2)cc1    407 nM
